# Test Method Notes: Plasma pharmacokinetics of lapatinib in rats (HPLC-MS/MS, non-compartmental)
# Assay type: in vivo, Wistar rats
# Condition Context: male, Wistar, rat, plasma, po, 100 mg/kg, rats, lapatinib 100 mg/kg p.o. alone (IIL), M ± SD
Experimental Endpoint: AUC(0-inf) (ng·h/mL)
# unit: ng·h/mL | format: bare number

Record CS(=O)(=O)CCNCc1ccc(-c2ccc3ncnc(Nc4ccc(OCc5cccc(F)c5)c(Cl)c4)c3c2)o1 [lapatinib, Lapatinib] . Reported AUC(0-inf): 8040

----------
# Test Method Notes: Plasma pharmacokinetics of paracetamol, paracetamol glucuronide and paracetamol sulphate in rats (HPLC-UV, non-compartmental)
# Type: in vivo, Wistar rats
# Condition Context: male, Wistar, rat, plasma, po, 100 mg/kg, paracetamol 100 mg/kg p.o. alone (IIIPA), plasma, M ± SD, read-out: Cmax
# Description: The experimental protocol for this study was reviewed and approved by the Local Ethics Committee. All procedures were performed in accordance with the European Union regulations concerning the handling and use of laboratory animals. The study was based on the required minimum number of animals and observation time in order to obtain consistent data. […] The animals were allowed to acclimatise for a week before the beginning of the experiments. The rats were divided into three groups. […]
Experimental Endpoint: Cmax (ng/mL)
# unit: ng/mL | format: bare number

Record CC(=O)Nc1ccc(O)cc1 . Reported Cmax: 24700
